- reported conditions: buffer; pH 7.4; 200.0 µM
readout type: solubility kinetic (µg/mL)
// units = µg/mL; emit number, no label

CN(CC1CCCN(CCc2ccc(F)cc2)C1)C(=O)CCC(F)(F)F (configuration not stated) :: 48.5
O=[N+]([O-])c1ccc(Cl)c(CN2CCCCCC2)c1 :: 13.8
Cn1c(=O)c2c(nc(Cl)n2CCOc2ccccc2)n(C)c1=O :: 6.7
Cc1ccc(S(N)(=O)=O)cc1NC(=O)/C=C/c1ccc2c(c1)OCO2 :: 2.1
CC(C)c1ccc(C2NC(=O)c3ccccc3O2)cc1 (configuration not stated) :: 1
Cc1cc2c(cc1C)CN(c1ccccc1)C2 :: 7.1

We now examine a further compound.
[ask] Given `COc1ccc(-c2cc(C(=O)NC3CC3)c3ccccc3n2)cc1` , state its recorded solubility kinetic.
[reply] 1.6

====

Each entry below carries its reported solubility kinetic.
- reported conditions: buffer; pH 7.4; 200.0 µM
// units = µg/mL; emit number, no label

[ask] Given `COc1ccccc1CCN=C(N)NS(=O)(=O)c1ccc(C)c(C)c1` , state its recorded solubility kinetic.
[reply] 8.3

[ask] Given `CC(=O)N(C1=NCCCS1)c1ccc(Cl)cc1` , state its recorded solubility kinetic.
[reply] 32.8

[ask] Given `S=C(Nc1ccc2c(c1)OCO2)Nc1ccccc1Cl` , state its recorded solubility kinetic.
[reply] 32.5

[ask] Given `CCN(C(=O)COC(=O)/C=C/c1ccc(F)cc1)C1CCCCC1` , state its recorded solubility kinetic.
[reply] 42.8

====

- reported conditions: buffer; pH 7.4; 200.0 µM
Could you label it 1 if measured solubility kinetic is 20 µg/mL or higher, and -1 otherwise?

Example entries and their recorded answers appear below.
CN(C)CC#CCn1c2ccccc2c2ccccc21.Cl :: 1
O=C(CCNC(=O)c1ccccc1Cl)Nc1nc2ccccc2[nH]1 :: -1
CC1CCCN(C(=O)c2ccc3c(c2)OCCO3)C1 (stereo not drawn) :: 1

[ask] Does the compound `CCCc1cc(=O)[nH]c(SCC(=O)N2CCCC2=O)n1` have recorded solubility kinetic that is 20 µg/mL or more?
[reply] 1

[ask] Does the compound COc1ccc(OCC(O)CN2CCOCC2)cc1 (stereo not drawn) have recorded solubility kinetic that is 20 µg/mL or more?
[reply] 1

[ask] Does the compound CC(C)CC(=O)N1CC(=O)Nc2ccc(F)cc2C1c1ccccc1 (stereo not drawn) have recorded solubility kinetic that is 20 µg/mL or more?
[reply] 1

[ask] Does the compound `COc1cccc(OCCNC(=O)Nc2cc(F)c(F)cc2Cl)c1` have recorded solubility kinetic that is 20 µg/mL or more?
[reply] -1

[ask] Does the compound Cc1ccccc1NC(=O)C(Cc1ccccc1)n1cccc1 (stereo not drawn) have recorded solubility kinetic that is 20 µg/mL or more?
[reply] -1

[ask] Does the compound O=C1C2C3CCC(CC3)C2C(=O)N1c1ccccc1 (stereo not drawn) have recorded solubility kinetic that is 20 µg/mL or more?
[reply] -1

[ask] Does the compound CC(=O)c1ccc(OCC(C)Oc2ccc(C#N)cc2)cc1 (stereo not drawn) have recorded solubility kinetic that is 20 µg/mL or more?
[reply] 1

[ask] Does the compound `CCOC(=O)C1(CC2CC2)CCN(Cc2cnc(N(C)C)s2)CC1` have recorded solubility kinetic that is 20 µg/mL or more?
[reply] 1

[ask] Does the compound O=S(=O)(NC1CC2CCC1C2)c1ccc(Br)cc1 (stereo not drawn) have recorded solubility kinetic that is 20 µg/mL or more?
[reply] -1

[ask] Does the compound `CCOC(=O)c1c(NC(=O)c2ccncc2)sc(C)c1C` have recorded solubility kinetic that is 20 µg/mL or more?
[reply] -1

[ask] Does the compound `CN(Cc1ccco1)C(=O)CN1C(=O)NC2(CCCC2)C1=O` have recorded solubility kinetic that is 20 µg/mL or more?
[reply] 1

[ask] Does the compound CCc1ccc(NC(=S)NCC2CCCN2CC)cc1 (stereo not drawn) have recorded solubility kinetic that is 20 µg/mL or more?
[reply] 1

[ask] Does the compound `COc1ccc(C(=O)O/N=C(/C(N)=O)P(=O)(OC(C)C)OC(C)C)cc1` have recorded solubility kinetic that is 20 µg/mL or more?
[reply] 1

[ask] Does the compound `CCOC(=O)c1ccc(CSC(=N)N)o1` have recorded solubility kinetic that is 20 µg/mL or more?
[reply] 1

[ask] Does the compound Cc1cc(C)cc(NC(=O)NCC(O)COc2ccc([N+](=O)[O-])cc2)c1 (stereo not drawn) have recorded solubility kinetic that is 20 µg/mL or more?
[reply] -1

[ask] Does the compound `Cc1ccc(CNCc2ccc3c(c2)OCO3)cc1` have recorded solubility kinetic that is 20 µg/mL or more?
[reply] 1

[ask] Does the compound `COC(=O)c1sc2nc3c(cc2c1N)CCCC3` have recorded solubility kinetic that is 20 µg/mL or more?
[reply] -1

[ask] Does the compound `CN(CCCC(=O)N1CCN(c2ncccn2)CC1)S(=O)(=O)c1ccc(F)cc1` have recorded solubility kinetic that is 20 µg/mL or more?
[reply] 1

[ask] Does the compound `O=C(O)c1ccccc1-c1cc2ccccc2[nH]1` have recorded solubility kinetic that is 20 µg/mL or more?
[reply] 1

[ask] Does the compound `COc1ccc(CNC(=O)C(=O)NCc2cccnc2)cc1` have recorded solubility kinetic that is 20 µg/mL or more?
[reply] 1

[ask] Does the compound `COc1cc2ccccc2cc1C(=O)N1CCCCC1` have recorded solubility kinetic that is 20 µg/mL or more?
[reply] 1
